assay: Plasma pharmacokinetics of TSU-68 in phase I patients; format: in vivo, human; conditions: human, plasma, oral, 400 mg/m2, C max, t.i.d. after meal, 1st dose, 400 mg/m^2, n=6, mean ± SD
value-type: Cmax

Sure, the documented Cmax for `Cc1[nH]c(/C=C2\C(=O)Nc3ccccc32)c(C)c1CCC(=O)O` is 12400 ng/mL

* * *

experiment: Plasma pharmacokinetics of TSU-68 in phase I patients; assay type: in vivo, human; conditions: human, plasma, oral, 500 mg/m2, C max, b.i.d. after meal, 1st dose, 500 mg/m^2, n=3, mean ± SD
value-type: Cmax (ng/mL)
Answer format: numeric, ng/mL implied, no suffix.

Sure, the documented Cmax for `Cc1[nH]c(/C=C2\C(=O)Nc3ccccc32)c(C)c1CCC(=O)O` is 22500

* * *

test: Plasma pharmacokinetics of TSU-68 in phase I patients; assay type: in vivo, human; details: human, plasma, oral, 400 mg/m2, C max, t.i.d. after meal, 2nd dose, 400 mg/m^2, n=6, mean ± SD
value-type: Cmax
Please state the value followed by its unit.

Sure, the documented Cmax for `Cc1[nH]c(/C=C2\C(=O)Nc3ccccc32)c(C)c1CCC(=O)O` is 9340 ng/mL

* * *

test: Plasma pharmacokinetics of TSU-68 in phase I patients; type: in vivo, human; details: human, plasma, oral, 400 mg/m2, T 1/2, t.i.d. after meal, 1st dose, 400 mg/m^2, N = 1
value-type: half-life (min)
Answer format: numeric, min implied, no suffix.

Sure, the documented half-life for Cc1[nH]c(/C=C2\C(=O)Nc3ccccc32)c(C)c1CCC(=O)O [TSU-68] is 157

* * *

assay: Plasma pharmacokinetics of TSU-68 in phase I patients; format: in vivo, human; conditions: human, plasma, oral, 400 mg/m2, T 1/2, b.i.d. after meal, 1st dose, 400 mg/m^2, n=6, mean ± SD
value-type: half-life

Sure, the documented half-life for `Cc1[nH]c(/C=C2\C(=O)Nc3ccccc32)c(C)c1CCC(=O)O` is 2.94 h
